Data credit: patent US8735601B2

Quick list: Φ1 (fluorescence quantum yield) per entry.
# measurement protocol: Measurement of fluorescence quantum yield (Rhodamine B in ethanol as reference)
# Type: physicochemical
# condition info: solvent DCM
parameter measured: Φ1 (fluorescence quantum yield)

smiles str: CCN1/C(=C/C=C/C(=C/C2=[N+](CC)c3ccccc3C2(C)C)NCCO)C(C)(C)c2ccccc21
recorded measurement: 0.114
//
smiles str: CCN1/C(=C/C=C/C(=C/C2=[N+](CC)c3ccccc3C2(C)C)NCc2ccccc2)C(C)(C)c2ccccc21
recorded measurement: 0.106
//
smiles str: CCN1/C(=C/C=C/C(=C/C2=[N+](CC)c3ccccc3C2(C)C)N(Cc2ccccc2)Cc2ccccc2)C(C)(C)c2ccccc21
recorded measurement: 0.113
